measurement target: UniProt:P17931
Sequence (P17931 whole entry): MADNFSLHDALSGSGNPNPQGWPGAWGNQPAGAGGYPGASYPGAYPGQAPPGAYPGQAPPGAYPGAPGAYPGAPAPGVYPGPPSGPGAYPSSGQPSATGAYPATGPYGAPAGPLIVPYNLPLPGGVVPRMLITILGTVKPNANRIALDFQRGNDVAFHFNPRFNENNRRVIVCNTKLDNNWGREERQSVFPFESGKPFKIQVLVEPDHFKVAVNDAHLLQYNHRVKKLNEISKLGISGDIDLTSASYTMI
method notes: competitive binding assay: biotinylated hGal-3 binding to microplate-adsorbed asialofetuin (ASF)
condition summary: Table 5; read-out: IC50 (Gal-3 inhibition)
measured metric: IC50 (nM)

Cc1nc(C)c([C@@H](S[C@@H]2O[C@H](CO)[C@H](O)[C@H](n3cc(-c4cc(F)c(F)c(F)c4)nn3)[C@H]2O)C2(O)CCOCC2)nc1C [Example 2.41.119R.]: 60

A. Cc1conc1[C@H](S[C@@H]1O[C@H](CO)[C@H](O)[C@H](n2cc(-c3cc(F)c(F)c(F)c3)nn2)[C@H]1O)C1(O)CCC(F)(F)CC1 [Example 2.44.120S.]
B. Cc1nc(C)c([C@@H](S[C@@H]2O[C@H](CO)[C@H](O)[C@H](n3cc(-c4cc(F)c(F)c(F)c4)nn3)[C@H]2O)C2(O)CCCCC2)nc1C [Example 2.39.119R.]
Input: Quick check, higher IC50 between A and B ? Mark your answer with the label of the selected entry.
Output: A
(A: 8270 nM, B: 70 nM)

A. OC[C@H]1O[C@@H](S[C@@H](c2ncccc2C(F)(F)F)C2(O)CCCCC2)[C@H](O)[C@@H](n2cc(-c3cc(F)c(F)c(F)c3)nn2)[C@H]1O [Example 2.39.125S.]
B. OC[C@H]1O[C@@H](S[C@H](c2ccccc2C(F)(F)F)C2(O)CCC(F)(F)CC2)[C@H](O)[C@@H](n2cc(-c3cc(F)c(F)c(F)c3)nn2)[C@H]1O [Example 2.44.112R.]
C. Cc1noc(C2CC2)c1[C@@H](S[C@@H]1O[C@H](CO)[C@H](O)[C@H](n2cc(-c3cc(F)c(F)c(F)c3)nn2)[C@H]1O)C1(O)CCCCC1 [Example 2.39.128R.]
Input: Arrange the 3 entries by IC50 so the values rise. Please reply with the labels ordered as requested. Many thanks.
Output: B, C, A
(B: 80 nM, C: 190 nM, A: 3000 nM)

* * *

measurement target: UniProtKB P17931
method notes: competitive binding assay: biotinylated hGal-3 binding to microplate-adsorbed asialofetuin (ASF)
condition summary: Gal-3 inhibition; binding of biotinylated hGal-3 to ASF; mean values; read-out: IC50
pIC50: −log10 of the molar value.
measured metric: pIC50

Sample answers from the record:
CO[C@@H]1[C@@H](n2cc(-c3cc(F)c(F)c(F)c3)nn2)[C@@H](O)[C@@H](CO)O[C@H]1SC(c1ccccc1C(F)(F)F)C1(O)CCN(C(C)=O)CC1 (some centres unmarked) [Example 2.48.112.I.]: 6.72
Cc1nccnc1C(S[C@@H]1O[C@H](CO)[C@H](O)[C@H](n2cc(-c3cc(F)c(F)c(F)c3)nn2)[C@H]1O)C1(O)CCC(F)(F)CC1 (some centres unmarked) [Example 2.44.129.]: 7.05
OC[C@H]1O[C@@H](SC(c2ccccc2)C2CC2)[C@H](O)[C@@H](n2cc(-c3cc(F)c(F)c(F)c3)nn2)[C@H]1O (some centres unmarked) [Example 2.54.100., reference compound]: 5.49

A. Cc1ccccc1[C@H](S[C@@H]1O[C@H](CO)[C@H](O)[C@H](n2cc(-c3cc(F)c(F)c(F)c3)nn2)[C@H]1O)C(C)(C)O [Example 2.31.102S.]
B. Cc1cccnc1[C@@H](S[C@@H]1O[C@H](CO)[C@H](O)[C@H](n2cc(-c3cc(F)c(F)c(F)c3)nn2)[C@H]1O)C1(O)CCOCC1 [Example 2.41.126R.]
Input: Quick check, higher pIC50 between A and B ? Mark your answer with the label of the selected entry.
Output: B
(B: 7.52, A: 5.35)
